system: influenza A H1N1 virus; details: 200 µM peptide, 48 hr post-treatment, A549
No end group written: not given here.
measured-metric: Neuraminidase activity normalized to vehicle

# input substance: RDVLCLRPVGAESR [CPEP94] ; wanted: its Neuraminidase activity normalized to vehicle 0,3954

# input substance: SAPCLLKLSTTLLCLEI [CPEP124] ; wanted: its Neuraminidase activity normalized to vehicle 0,1059

# input substance: AHQNSQTHQASLSKQ [CPEP43] ; wanted: its Neuraminidase activity normalized to vehicle 0,8034

# input substance: CPEP61: peptide of the viral peptide library; sequence page not shown (KRRKSGAKRR) ; wanted: its Neuraminidase activity normalized to vehicle 0,867

# input substance: CPEP69: peptide of the viral peptide library; sequence page not shown (MRHIICHGGVITEE) ; wanted: its Neuraminidase activity normalized to vehicle 1,1006

# input substance: MSKKPGGPGKNRAVN [CPEP42] ; wanted: its Neuraminidase activity normalized to vehicle 0,9312

# input substance: EVVLFLLNVF [CPEP31] ; wanted: its Neuraminidase activity normalized to vehicle 0,0494

# input substance: WKSKKTP [CPEP78] ; wanted: its Neuraminidase activity normalized to vehicle 0,663

# input substance: KLVTELAENS [CPEP129] ; wanted: its Neuraminidase activity normalized to vehicle 0,8014

# input substance: FVKSNWGLF [CPEP101] ; wanted: its Neuraminidase activity normalized to vehicle 0,7463

# input substance: TIESEV [CPEP59] ; wanted: its Neuraminidase activity normalized to vehicle 1,1965

# input substance: EVLADNLPPP [CPEP90] ; wanted: its Neuraminidase activity normalized to vehicle 0,7518

# input substance: DLYCYEQLNDSSEEEDE [CPEP125] ; wanted: its Neuraminidase activity normalized to vehicle 0,7813

----------
system: EBV; conditions: normalized mean of EBV replication readout; peptide screen
Hi there, I'd appreciate the recorded EBV Norm MEAN for every entry that follows.
Would you mind answering with just the numeric figure?

# input substance: ACTNCYCKKCCFHCQVC [CPEP100] ; wanted: its EBV Norm MEAN 1.687

# input substance: QILVESPTVLESGTKE [CPEP80] ; wanted: its EBV Norm MEAN 0.8761

# input substance: ARARALARGAGPANSV [CPEP47] ; wanted: its EBV Norm MEAN 1.295

# input substance: EALKKALRRHRFLWQRR [CPEP73] ; wanted: its EBV Norm MEAN 2.469

# input substance: CMSCCRSSRTRRETQL [CPEP57] ; wanted: its EBV Norm MEAN 0.8928

# input substance: DLYCYEQLNDSSEEEDE [CPEP125] ; wanted: its EBV Norm MEAN 1.019

# input substance: AHQNSQTHQASLSKQ [CPEP43] ; wanted: its EBV Norm MEAN 0.682

# input substance: MSKKPGGPGKNRAVN [CPEP42] ; wanted: its EBV Norm MEAN 0.6277

# input substance: DLYCYEQLNDSSEEE [CPEP55] ; wanted: its EBV Norm MEAN 0.3423

# input substance: MSSDLRLTLLELVRRL [CPEP66] ; wanted: its EBV Norm MEAN 1.239

# input substance: HFEPPTLHELYDLDVTAP [CPEP115] ; wanted: its EBV Norm MEAN 0.5144

# input substance: TRVESENKVVILDSFD [CPEP93] ; wanted: its EBV Norm MEAN 1.069

# input substance: CPEP126: peptide of the viral peptide library; sequence page not shown (TQNLYPDLSEIKK) ; wanted: its EBV Norm MEAN 0.8026

----------
Hi there, I'd appreciate the recorded Neuraminidase activity normalized to vehicle for every entry that follows.
system: influenza A H1N1 virus; conditions: 22,2 µM peptide, 48 hr post-treatment, A549

Please state recorded Neuraminidase activity normalized to vehicle (tested on influenza A H1N1 virus) of DKELYPLTSLRSLFG [CPEP65] 1,0442

Please state recorded Neuraminidase activity normalized to vehicle (tested on influenza A H1N1 virus) of CPEP64: peptide of the viral peptide library; sequence page not shown (CCFHCQVCFIT) 0,1905

Please state recorded Neuraminidase activity normalized to vehicle (tested on influenza A H1N1 virus) of GGKWSKLS [CPEP134] 0,8116

Please state recorded Neuraminidase activity normalized to vehicle (tested on influenza A H1N1 virus) of RRPSRPFRK [CPEP88] 0,7716

Please state recorded Neuraminidase activity normalized to vehicle (tested on influenza A H1N1 virus) of QRRGRTGRG [CPEP40] 1,004

Please state recorded Neuraminidase activity normalized to vehicle (tested on influenza A H1N1 virus) of CPEP96: peptide of the viral peptide library; sequence page not shown (GRKKRRQRRRAHQ) 0,9748

Please state recorded Neuraminidase activity normalized to vehicle (tested on influenza A H1N1 virus) of FVKSNWGLF [CPEP101] 0,9003

Please state recorded Neuraminidase activity normalized to vehicle (tested on influenza A H1N1 virus) of IHTHARFLIT [CPEP139] 0,9135

Please state recorded Neuraminidase activity normalized to vehicle (tested on influenza A H1N1 virus) of CPEP69: peptide of the viral peptide library; sequence page not shown (MRHIICHGGVITEE) 1,0597

Please state recorded Neuraminidase activity normalized to vehicle (tested on influenza A H1N1 virus) of CPEP140: peptide of the viral peptide library; sequence page not shown (RKKRRQRRRA) 1,0982

----------
Hi there, I'd appreciate the recorded fraction unbound at 6 h, 10 µM for every entry that follows.
assay: Plasma protein binding by equilibrium dialysis, murine; format: in vitro ADME; conditions: mouse, read-out: PPB (% bound)
Would you mind answering with just the numeric figure?

# input compound: O=C(Nc1scc(C2CCc3ccccc3C2)c1C(=O)O)c1ccccc1 (centres unmarked) [dEF3122] ; wanted: its fraction unbound at 6 h, 10 µM 0.001

# input compound: COc1ccc(C(=O)Nc2sc3c(c2C(=O)O)CCC(C(C)(C)C)C3)cc1 (centres unmarked) ; wanted: its fraction unbound at 6 h, 10 µM 0.001

# input compound: O=C(Nc1scc(C2CCc3ccccc3C2)c1C(=O)O)c1ccccc1 (racemic) [dEF2905] ; wanted: its fraction unbound at 6 h, 10 µM 0.001

----------
Hi there, I'd appreciate the recorded Cmax for every entry that follows.
assay: PK parameters in mice; format: in vivo, male Swiss (CD-1) mice; conditions: male, Swiss (CD-1), plasma; mouse, po 2 mg/kg (dose for AUC)
Numeric answer only, unit ng/mL assumed.

# input compound: O=C(Nc1scc(C2CCc3ccccc3C2)c1C(=O)O)c1ccccc1 (centres unmarked) [dEF3122] ; wanted: its Cmax 1600

# input compound: O=C(Nc1scc(C2CCc3ccccc3C2)c1C(=O)O)c1ccccc1 (racemic) [dEF2905] ; wanted: its Cmax 1140

----------
test system: influenza A H1N1 virus; conditions: 200 µM peptide, 48 hr post-treatment, A549
No end group written: not given here.
Hi there, I'd appreciate the recorded Neuraminidase activity normalized to vehicle for every entry that follows.

# input substance: CPEP140: peptide of the viral peptide library; sequence page not shown (RKKRRQRRRA) ; wanted: its Neuraminidase activity normalized to vehicle 0,616

# input substance: PVHAGPIAP [CPEP87] ; wanted: its Neuraminidase activity normalized to vehicle 0,6355

# input substance: CMSCCRSSRTRRETQL [CPEP57] ; wanted: its Neuraminidase activity normalized to vehicle 0,9828

# input substance: MAGRSGDSDEELIR [CPEP91] ; wanted: its Neuraminidase activity normalized to vehicle 0,8049

# input substance: PDSDPQIPPPYVEPTA [CPEP138] ; wanted: its Neuraminidase activity normalized to vehicle 1,0087

# input substance: CPEP83: peptide of the viral peptide library; sequence page not shown (LHGLSAFSLHSYS) ; wanted: its Neuraminidase activity normalized to vehicle 0,249

# input substance: GPSDSGAGRAAEDRKCL [CPEP137] ; wanted: its Neuraminidase activity normalized to vehicle 1,0777

# input substance: RPEPTAPPEE [CPEP116] ; wanted: its Neuraminidase activity normalized to vehicle 0,7624

# input substance: LRKRRKRL [CPEP145] ; wanted: its Neuraminidase activity normalized to vehicle 0,7911

# input substance: CPEP126: peptide of the viral peptide library; sequence page not shown (TQNLYPDLSEIKK) ; wanted: its Neuraminidase activity normalized to vehicle 0,8408

# input substance: ISNLPYTIKYKIFEQQ [CPEP120] ; wanted: its Neuraminidase activity normalized to vehicle 1,0456

# input substance: CPEP99: peptide of the viral peptide library; sequence page not shown (SWESHKSGGETRL) ; wanted: its Neuraminidase activity normalized to vehicle 1,0243

# input substance: IQIGNHNAM [CPEP67] ; wanted: its Neuraminidase activity normalized to vehicle 0,0404

# input substance: LTEDRWNKPQKTKGH [CPEP141] ; wanted: its Neuraminidase activity normalized to vehicle 0,9005

# input substance: RYSKRRHGRR [CPEP118] ; wanted: its Neuraminidase activity normalized to vehicle 0,7942

# input substance: CPEP142: peptide of the viral peptide library; sequence page not shown (LGIVCPICSQKP) ; wanted: its Neuraminidase activity normalized to vehicle 0,8923

# input substance: IKQEDIKP [CPEP109] ; wanted: its Neuraminidase activity normalized to vehicle 0,7052

# input substance: HFEPPTLHELYDLDVTAP [CPEP115] ; wanted: its Neuraminidase activity normalized to vehicle 1,0337

# input substance: DLYCYEQLNDSSEEE [CPEP55] ; wanted: its Neuraminidase activity normalized to vehicle 1,025

# input substance: NKVGSLQYLALAALI [CPEP60] ; wanted: its Neuraminidase activity normalized to vehicle 0,117

# input substance: RTYGTWEDLFCDESL [CPEP128] ; wanted: its Neuraminidase activity normalized to vehicle 0,6933

# input substance: FPESLIL [CPEP76] ; wanted: its Neuraminidase activity normalized to vehicle 0,7678

# input substance: MNNQRKKAKNTPFNM [CPEP62] ; wanted: its Neuraminidase activity normalized to vehicle 1,2311

# input substance: PKKKRKV [CPEP56] ; wanted: its Neuraminidase activity normalized to vehicle 0,9628

# input substance: CPEP14: peptide of the viral peptide library; sequence page not shown (ILHTPGCVPCVR) ; wanted: its Neuraminidase activity normalized to vehicle 0,9254

# input substance: GGKWSKLS [CPEP134] ; wanted: its Neuraminidase activity normalized to vehicle 0,426

# input substance: CPEP71: viral library peptide from HIV1 Integrase, targets IPO7 (WKGPAKLLWKG) ; wanted: its Neuraminidase activity normalized to vehicle 0,1137

# input substance: RHIICHGGVI [CPEP133] ; wanted: its Neuraminidase activity normalized to vehicle 0,0947

# input substance: MSSDLRLTLLELVRRL [CPEP66] ; wanted: its Neuraminidase activity normalized to vehicle 1,1231

# input substance: RKSASMS [CPEP82] ; wanted: its Neuraminidase activity normalized to vehicle 0,8479

# input substance: GGLEPLSEKHFRETEV [CPEP112] ; wanted: its Neuraminidase activity normalized to vehicle 1,0677

# input substance: CPEP52: peptide of the viral peptide library; sequence page not shown (CFITKALGISYG) ; wanted: its Neuraminidase activity normalized to vehicle 0,1673

# input substance: PVHAGPIAPGQMREP [CPEP81] ; wanted: its Neuraminidase activity normalized to vehicle 0,9395

# input substance: CPEP74: peptide of the viral peptide library; sequence page not shown (ALGISYGRKKRRQ) ; wanted: its Neuraminidase activity normalized to vehicle 0,8907

# input substance: KKTKSLP [CPEP75] ; wanted: its Neuraminidase activity normalized to vehicle 0,6614

# input substance: RRPSRPFRK [CPEP88] ; wanted: its Neuraminidase activity normalized to vehicle 0,55

# input substance: CPEP89: peptide of the viral peptide library; sequence page not shown (YDVLKAACKSVIKT) ; wanted: its Neuraminidase activity normalized to vehicle 0,097

# input substance: SEWQRDQFLSQVK [CPEP95] ; wanted: its Neuraminidase activity normalized to vehicle 0,9927

# input substance: LGQGVSIEW [CPEP122] ; wanted: its Neuraminidase activity normalized to vehicle 0,6921

# input substance: QRRGRTGRG [CPEP40] ; wanted: its Neuraminidase activity normalized to vehicle 0,9281

# input substance: LGNIKGILGKKDKDG [CPEP51] ; wanted: its Neuraminidase activity normalized to vehicle 1,0387

# input substance: SLQYLALAALITPKK [CPEP46] ; wanted: its Neuraminidase activity normalized to vehicle 0,1529

# input substance: SEKHFRETEV [CPEP106] ; wanted: its Neuraminidase activity normalized to vehicle 1,1108

# input substance: AAAVAFL [CPEP117] ; wanted: its Neuraminidase activity normalized to vehicle 0,72

# input substance: PPIPPPR [CPEP151] ; wanted: its Neuraminidase activity normalized to vehicle 1,016

# input substance: CPEP153: peptide of the viral peptide library; sequence page not shown (GRKKRRQRRR) ; wanted: its Neuraminidase activity normalized to vehicle 0,9878

# input substance: RRRETQV [CPEP148] ; wanted: its Neuraminidase activity normalized to vehicle 0,7433

# input substance: GARASVLS [CPEP108] ; wanted: its Neuraminidase activity normalized to vehicle 0,7289

# input substance: DILDLWIYHTQGYFPDWQ [CPEP114] ; wanted: its Neuraminidase activity normalized to vehicle 0,4016

# input substance: CPEP102: peptide of the viral peptide library; sequence page not shown (PHGPVQLSYYD) ; wanted: its Neuraminidase activity normalized to vehicle 0,8099
